Source listed as ChEMBL document CHEMBL1649090.

ASSAY: Plasma protein binding in dog
Type: ADME, cell-free, Canis lupus familiaris
CONDITION_SET: read-out: PPB (converted)

| COMPOUND | fraction unbound |
| --- | --- |
| CN(C)CCN(C)[C@H]1COc2ccccc2-c2c(C3CCCCC3)c3ccc(C(=O)O)cc3n2C1 [MK-3281] | 0.027 |

---

TARGET: Protein kinase C alpha type (Homo sapiens)
pIC50: −log10 of the molar value.

| MOLECULE | pIC50 |
| --- | --- |
| CN(C)CCN(C)[C@H]1COc2ccccc2-c2c(C3CCCCC3)c3ccc(C(=O)O)cc3n2C1 | 4.23 |
